src = patent US20260209316A1

target-under-test: T1, full-length Sudan GP (GPFL) (Sudan virus (SUDV), UniProt Q7T9D9 33-650)
T1 construct: also called Sudan GPFL; GP(S)FL
T1 sequence: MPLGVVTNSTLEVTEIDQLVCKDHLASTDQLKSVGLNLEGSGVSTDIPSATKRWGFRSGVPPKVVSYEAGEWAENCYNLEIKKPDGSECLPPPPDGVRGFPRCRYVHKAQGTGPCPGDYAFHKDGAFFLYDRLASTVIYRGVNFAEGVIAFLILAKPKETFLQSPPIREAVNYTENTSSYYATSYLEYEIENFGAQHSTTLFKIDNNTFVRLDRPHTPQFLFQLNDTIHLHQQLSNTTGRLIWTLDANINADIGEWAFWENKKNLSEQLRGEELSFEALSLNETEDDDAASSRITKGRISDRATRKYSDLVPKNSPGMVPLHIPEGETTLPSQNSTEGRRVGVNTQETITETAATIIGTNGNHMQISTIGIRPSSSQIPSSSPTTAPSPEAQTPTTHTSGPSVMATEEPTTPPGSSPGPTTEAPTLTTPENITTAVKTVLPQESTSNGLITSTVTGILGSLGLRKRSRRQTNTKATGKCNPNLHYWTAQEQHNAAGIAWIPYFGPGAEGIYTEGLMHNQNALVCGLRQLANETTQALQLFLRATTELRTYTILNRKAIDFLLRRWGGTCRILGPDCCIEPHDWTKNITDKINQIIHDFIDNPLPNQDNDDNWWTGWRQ
experimental-protocol: BLI, Fab, pH 5.3
reported-property: Kd (nM)
Your answer should be a plain number; it is taken to be in nM.

Tell me the measured Kd of Fab generated from 377S (Fab, V domains shown) VH: QVQLVQSGAEVKKPGSSVKVSCKASGGTFSNYAINWVRQAPGQGLEWMGRTIPFLGLTNYAENFQARVTITADKSTGTSYMQLSSLRSEDTAVYFCAKAATSGWSPFDNWGQGTLVTVSS VL: EIVLTQSPGTLSLSPGERATLSCRASQSISSSYFGWYQQKPGQAPRLLIYGASRRAAGIPDRFSCSGSGTDFTLTISRLEPEDFGVYYCQQYGSSPTFGQGTKVEIK , please. 63.7
